For each entry below, report its inhibition at 1 µM value.
study-system: HIV-1 RT wild type (WT) enzyme (Human immunodeficiency virus type 1 group M subtype B)
Construct: Reverse transcriptase enzyme from the LAV strain of Human Immunodeficiency Virus (HIV-1) (1) was isolated from the bacterial strain JM109; made in house; host or cells: E. coli JM109 (clone pBRTprt1+ in vector pIBI21, lac promoter)
protocol-details: Reverse Transcriptase (RT) Assay, wild type enzyme (RNA-dependent DNA polymerase activity)
Assay type: biochemical, Human Immunodeficiency Virus (HIV-1)
condition-description: 1 µM compound, read-out: Reverse Transciptase Assay % inhibition (1 µM) WT
Enter your answer as a number in %; do not include the unit.

Fill blank: measured inhibition at 1 µM of the compound `CCN1c2ncccc2C(=O)N(C)c2ccc(-c3cccn3C)nc21` is ____. 81

Another: `CCN1c2ncccc2C(=O)N(C)c2ccc(-c3c[nH]nc3C)nc21` 94

Another: `CCN1c2ncccc2C(=O)N(C)c2ccc(-c3cnn(C)c3)nc21` 63

Another: `CCN1c2ncccc2C(=O)N(C)c2ccc(-c3cc[nH]c3C#N)nc21` 87

Another: `CCN1c2ncccc2C(=O)N(C)c2ccc(-c3c[nH]c(C(=O)O)c3)nc21` 33

Another: `CCN1c2ncccc2C(=O)N(C)c2ccc(-c3ccn(C)c3)nc21` 65

Another: `CCN1c2ncccc2C(=O)N(C)c2ccc(-c3ccc[nH]3)nc21` 88

Another: `CCN1c2ncccc2C(=O)N(C)c2ccc(-c3cc4cc(OC)ccc4[nH]3)nc21` 61
